assay: Caspase-3/7 induction in HepG2 cells by small molecules, qHTS cell viability counter screen (AID 1346981); settings: CellTiter-Fluor fluorescence, 17 h; series mostly up to 92.4 µM; note: nearly all actives have a fitted effect of over 30% in size
Records with an inconclusive call do not appear. Active and inactive are the calls of the source. Calls come from the whole dose curve; as a rule, active = well fitted cell-killing curve with a large enough effect in the repeat runs; inconclusive = weak or mixed curves, or effect the other way; inactive = flat fitted curve, though single readings scatter.
METRIC: outcome

These recorded examples may help you get a feel for the data.
C=C1C[C@H]2[C@@H]3C=C(C)C4=CC(=O)CC[C@]4(C)[C@H]3CC[C@]2(C)[C@@]1(OC(C)=O)C(C)=O    inactive
CCCN1C=CN(C)C1    inactive
CC(=O)[C@H]1CC[C@H]2[C@@H]3CC=C4C[C@@H](O)CC[C@]4(C)[C@H]3CC[C@]12C    inactive
CN(Cc1cnc2nc(N)nc(N)c2n1)c1ccc(C(=O)N[C@@H](CCC(=O)O)C(=O)O)cc1    inactive
c1ccc2cc3ccccc3cc2c1    inactive

Task: Request the reported outcome associated with `CC(=O)Oc1c(C)c(C)c2c(c1C)CC[C@@](C)(CCC[C@H](C)CCC[C@H](C)CCCC(C)C)O2`
Output: inactive

Task: Can you look up the measured outcome of `CCC(=O)O[C@H]1[C@H](O[C@@H]2[C@@H](C)[C@H](O[C@H]3C[C@@](C)(OC)[C@@H](O)[C@H](C)O3)[C@@H](C)C(=O)O[C@H](CC)[C@@](C)(O)[C@H](O)[C@@H](C)C(=O)[C@H](C)C[C@@]2(C)O)O[C@H](C)C[C@@H]1N(C)C` for me?
Output: inactive

###

experiment: qHTS assay to test for compound auto fluorescence at 535 nm (green) in HEK293 cells (AID 720680); conditions: green autofluorescence 485/535 nm; series mostly up to 91.3 µM
Calls of active or inactive are those of the source. The call rests on the fitted dose curve; in most records, active means well fitted curve in the direction sought with a large enough effect in the repeat runs; inconclusive means weak or mixed curves; inactive means flat fitted curve, though single readings scatter.
METRIC: outcome

CC/C=C\C/C=C\C/C=C\CCCCCCCC(=O)O    inactive
CN(C)CCCN1c2ccccc2Sc2ccc(Cl)cc21    inactive
Clc1ccc(Sc2cc(Cl)c(Cl)cc2Cl)cc1    inactive

###

target: Estrogen receptor (Homo sapiens); test: qHTS assay to identify small molecule antagonists of the estrogen receptor alpha (ER-alpha) signaling pathway (AID 743069); conditions: HEK293 ER-alpha-UAS-bla, beta-lactamase ratio, antagonist mode; series mostly up to 69.4 µM
Results filed as inconclusive are left out. Active and inactive are the calls of the source. The call rests on the fitted dose curve; in most records, active means well fitted curve in the direction sought with a large enough effect in the signal ratio in the repeat runs (not every such curve was filed as active); inconclusive means weak or mixed curves, or effect the other way; inactive means no such curve, though single readings can be large or run the other way; the % refers to the signal ratio.
METRIC: outcome

Would you please look over these solved cases?
CC(=O)Oc1c(C)c(C)c2c(c1C)CC[C@@](C)(CCC[C@H](C)CCC[C@H](C)CCCC(C)C)O2    inactive
Cc1ccc(C(C)(C)C)c(O)c1    inactive
CCCCCC1C(=O)CCC1CC(=O)OC (stereo not drawn)    inactive
CN(C)C    inactive
O=C1CCc2ccccc2O1    inactive
CC(=O)Nc1ccc2c(c1)Cc1cc(NC(C)=O)ccc1-2    inactive
CCO[Si](CCCNC(N)=O)(OCC)OCC    inactive
CC1(C)C(C=C(Cl)Cl)C1C(=O)OCc1cccc(Oc2ccccc2)c1 (stereo not drawn)    inactive

Task: Recorded outcome of `O=C(O)c1cc(=O)[nH]c(=O)[nH]1` , please.
Output: inactive

Task: # outcome lookup, item `C=CCNCC=C`
Output: inactive

Task: Item under review: `Nc1cc([N+](=O)[O-])ccc1C(=O)O` . Reported outcome?
Output: inactive

Task: Query (compound): `CC(=O)[C@@]1(O)CC[C@H]2[C@@H]3C[C@H](C)C4=CC(=O)C=C[C@]4(C)[C@@]3(F)[C@@H](O)C[C@@]21C` ; field requested: outcome
Output: inactive

Task: If you can, please state the reported outcome value of `O=S1(=O)CCCO1` .
Output: inactive
